Record: compiled Ki on Receptor-interacting serine/threonine-protein kinase 1 (Homo sapiens, UniProt Q13546) from multiple reports.
// units = µM; emit number, no label

Please review the entries below; each comes with its answer.
compound	quantity name	recorded measurement
O=S(=O)(c1nc2n(n1)CCC2c1ccccc1)C(F)F (racemic)	Ki	0.1
O=C(c1nc2n(n1)[C@H](c1ccccc1)C[C@@H]2F)N1CCCC(F)(F)C1 (racemic)	Ki	0.79
CC(C)S(=O)(=O)c1nc2n(n1)[C@H](c1ccccc1)C[C@@H]2F (single isomer, unassigned)	Ki	0.014
CC(C)(C#N)S(=O)(=O)c1nc2n(n1)[C@H](c1ccccc1)C[C@@H]2F (single isomer, unassigned)	Ki	0.014
O=C(c1nc2n(n1)[C@H](c1ccccc1)C[C@@H]2F)N(CC(F)(F)F)C1CC1 (racemic)	Ki	2.2
CC1(S(=O)(=O)c2nc3n(n2)[C@H](c2ccccc2)C[C@@H]3F)CC1 (single isomer, unassigned)	Ki	0.021

**Query** Write down measured Ki (Receptor-interacting serine/threonine-protein kinase 1 (Homo sapiens, UniProt Q13546)) for this compound. CC(C)[S@+]([O-])c1nc2n(n1)[C@H](c1ccccc1)C[C@@H]2F (single isomer, unassigned)
**Result** 0.76

**Query** Output reported Ki of the compound CC1(C)OCC2CC21C(=O)c1nc2n(n1)[C@H](c1ccccc1)C[C@@H]2F (mixture of isomers) on Receptor-interacting serine/threonine-protein kinase 1 (Homo sapiens, UniProt Q13546).
**Result** 0.084

**Query** Fill in: Ki on Receptor-interacting serine/threonine-protein kinase 1 (Homo sapiens, UniProt Q13546), entry CCC1CN(C(=O)c2nc3n(n2)C(c2ccccc2)CC3)C1 (racemic)
**Result** 1.36

====

Consider the following Ki data for Receptor-interacting serine/threonine-protein kinase 1 (Homo sapiens, UniProt Q13546), collected from several reports.
Please respond with the number in nM and leave the unit unwritten.

The examples below pair each entry with its known result.
molecule	quantity name	unit descriptor	recorded measurement
N#CCS(=O)(=O)c1cc2n(n1)[C@H](c1ccccc1)C[C@@H]2F (single isomer, unassigned)	Ki	nM	8
[O-][S+](CC1CC1)c1nc2n(n1)[C@H](c1ccccc1)C[C@@H]2F (stereo partly shown)	Ki	nM	44
COc1cnn(-c2nc3n(n2)[C@H](c2ccccc2)C[C@@H]3F)c1 (single isomer, unassigned)	Ki	nM	130

**Query** Quote Receptor-interacting serine/threonine-protein kinase 1 (Homo sapiens, UniProt Q13546) Ki for entry CN1C(=O)[C@@H](NC(=O)c2ncn(Cc3ccccc3F)n2)CCn2c1cccc2=O (single isomer, unassigned) .
**Result** 290

====

What follows is literature data on Ki for Receptor-interacting serine/threonine-protein kinase 1 (Homo sapiens).
Kindly apply the following: true (1) if Ki is less than 0.2 µM, false (0) in every other case.

molecule	assigned category
CCn1cc2c(cc1=O)N(C)C(=O)[C@H](NC(=O)c1nc3n(n1)[C@H](c1ccccc1F)CC3)CC2 (single isomer, unassigned)	false (0)
O=C(c1nc2n(n1)[C@H](c1ccccc1)C[C@@H]2F)N1CCCc2ccccc2C1 (racemic)	true (1)
F[C@H]1C[C@@H](c2ccccc2)n2nc(-c3cnoc3)nc21 (single isomer, unassigned)	true (1)
[O-][S@+](CF)c1nc2n(n1)[C@H](c1cccc(F)c1)C[C@@H]2F (single isomer, unassigned)	true (1)
O=S(=O)(c1nc2n(n1)[C@H](c1cccc(Cl)c1)C[C@@H]2F)C1CC1	true (1)

**Query** Determine whether this molecule shows Ki lower than 0.2 µM (ties excluded): O=S(=O)(c1nc2n(n1)[C@H](c1ccccc1)C[C@@H]2F)[C@H]1C[C@@H](CO)C1 (single isomer, unassigned)
**Result** false (0)

**Query** Dear colleague, could you confirm whether Ki of F[C@H]1C[C@@H](c2ccccc2)n2nc(-n3ccnc3)nc21 (single isomer, unassigned) falls below 0.2 µM? Thanks.
**Result** false (0)

====

Across several studies, compounds have been characterized by their pKi on Receptor-interacting serine/threonine-protein kinase 1 (Homo sapiens); a selection follows.
pKi: −log10 of the molar value.
Classify by measured pKi: true if it is equal to or exceeds 8, false if it is smaller.

Please review the following examples before continuing.
compound	assigned category
O=S(=O)(c1nc2n(n1)[C@H](c1cccc(F)c1)C[C@@H]2F)C1CC1 (single isomer, unassigned)	true
O=S(=O)(c1nc2n(n1)[C@H](c1cccc(F)c1)C[C@@H]2F)C(F)(F)F (single isomer, unassigned)	true
Cc1ccc2c(c1)nnn2-c1nc2n(n1)[C@H](c1ccccc1)C[C@@H]2F (racemic)	false
F[C@H]1C[C@@H](c2ccccc2)n2nc(-n3cc(-c4ccncn4)cn3)nc21 (single isomer, unassigned)	false
O=S(=O)(c1nc2n(n1)[C@H](c1cccc(Cl)c1F)C[C@@H]2F)C1CC1 (single isomer, unassigned)	false

**Query** Quick check, pKi >= 8? C[C@@H]1C[C@H](F)CN1C(=O)c1nc2n(n1)[C@H](c1ccccc1)C[C@@H]2F (racemic)
**Result** false

====

pKi: −log10 of the molar value.
Field pKi: reported value for Receptor-interacting serine/threonine-protein kinase 1 (Homo sapiens); entries drawn from several documents.
Please note: TRUE applies when pKi is 7 or greater, and FALSE applies otherwise.

Please review the entries below; each comes with its answer.
molecule	assigned category
CC1c2ccccc2CCN1C(=O)c1nc2n(n1)[C@H](c1ccccc1)C[C@@H]2F (mixture of isomers)	TRUE
[O-][S@@+](CC(F)(F)F)c1nc2n(n1)[C@H](c1ccccc1)C[C@@H]2F (single isomer, unassigned)	TRUE

**Query** Tell me whether pKi is at least 7 here: C[C@H]1Oc2cccnc2N(C)C(=O)[C@H]1NC(=O)c1cc2n(n1)CCO[C@H]2c1ccccc1
**Result** TRUE

**Query** Please indicate if the recorded pKi for Cn1ccnc1-c1nc2n(n1)[C@H](c1ccccc1)C[C@@H]2F (single isomer, unassigned) meets or exceeds 7.
**Result** FALSE

====

Reported Ki against Receptor-interacting serine/threonine-protein kinase 1 (Homo sapiens, UniProt Q13546), gathered from multiple publications, appears below.
State the answer as a number, implicitly in nM.

Take a look at these entries with their results.
compound	unit descriptor	Ki
C=Cc1nc2n(n1)[C@H](c1ccccc1)C[C@@H]2F (single isomer, unassigned)	nM	220
CN1C(=O)[C@@H](NC(=O)c2ncn(Cc3ccccc3F)n2)CCc2c1ccc(=O)n2C (single isomer, unassigned)	nM	156
CS(=O)(=O)c1nc2n(n1)[C@H](c1ccccc1F)CC2 (single isomer, unassigned)	nM	250
O=S(=O)(c1nc2n(n1)[C@H](c1ccccc1)C[C@@H]2F)[C@H]1C[C@@H]1F (single isomer, unassigned)	nM	4
CC1(S(=O)(=O)c2nc3n(n2)[C@H](c2ccccc2)C[C@@H]3F)CC1(F)F (stereo partly drawn)	nM	12

**Query** Param request: Ki | system Receptor-interacting serine/threonine-protein kinase 1 (Homo sapiens, UniProt Q13546) | item [O-][S@+](CF)c1nc2n(n1)[C@H](c1c(F)cccc1F)C[C@@H]2F (single isomer, unassigned)
**Result** 290

**Query** Give Ki; test system Receptor-interacting serine/threonine-protein kinase 1 (Homo sapiens, UniProt Q13546); compound CC1CN(C(=O)c2nc3n(n2)C(c2ccccc2)CC3)C1 (racemic)
**Result** 465

**Query** Quote Ki with test system Receptor-interacting serine/threonine-protein kinase 1 (Homo sapiens, UniProt Q13546) for O=C(c1nc2n(n1)[C@H](c1ccccc1)C[C@@H]2F)N1CCC(Oc2ccccc2)C1 (mixture of isomers)
**Result** 61

**Query** Fetch value of Ki on Receptor-interacting serine/threonine-protein kinase 1 (Homo sapiens, UniProt Q13546) for [2H]C([2H])(c1nc2n(n1)[C@H](c1ccccc1)C[C@@H]2F)C1CC1 (single isomer, unassigned) .
**Result** 7.3

**Query** Tell me Ki of CN1C(=O)[C@@H](NC(=O)c2ncn(Cc3ccccc3)n2)CCn2c1cccc2=O (single isomer, unassigned) when tested on Receptor-interacting serine/threonine-protein kinase 1 (Homo sapiens, UniProt Q13546).
**Result** 489

**Query** Jot down Ki (Receptor-interacting serine/threonine-protein kinase 1 (Homo sapiens, UniProt Q13546)) of O=C(c1nc2n(n1)[C@H](c1ccccc1)C[C@@H]2F)N1CCC1C(F)F (mixture of isomers) .
**Result** 17

**Query** Specify Ki for [2H]C(c1nc2n(n1)[C@H](c1ccccc1)C[C@@H]2F)C1CC1 (stereo partly drawn) , system Receptor-interacting serine/threonine-protein kinase 1 (Homo sapiens, UniProt Q13546).
**Result** 9

====

Literature Ki values, system: Receptor-interacting serine/threonine-protein kinase 1 (Homo sapiens, UniProt Q13546).
Provide the reading as a plain figure in nM.

Recorded Ki, per entry:
compound	target desc	Ki, nM
COCCN(CC(F)F)C(=O)c1nc2n(n1)[C@@H](c1ccccc1)C[C@H]2F (racemic)	Receptor-interacting serine/threonine-protein kinase 1 (Homo sapiens, UniProt Q13546)	520
F[C@H]1C[C@@H](c2ccccc2)n2nc(-n3cc(C4CC4)cn3)nc21 (single isomer, unassigned)	Receptor-interacting serine/threonine-protein kinase 1 (Homo sapiens, UniProt Q13546)	13
CN1C(=O)[C@@H](NC(=O)c2nc3n(n2)[C@H](c2ccccc2F)CC3)CCc2cn(C)c(=O)cc21	Receptor-interacting serine/threonine-protein kinase 1 (Homo sapiens, UniProt Q13546)	81.1
CN(C)C(=O)c1nc2n(n1)CCOC2c1ccccc1F (racemic)	Receptor-interacting serine/threonine-protein kinase 1 (Homo sapiens, UniProt Q13546)	5000
N#CC1CC(=Cc2nc3n(n2)[C@H](c2ccccc2)C[C@@H]3F)C1 (mixture of isomers)	Receptor-interacting serine/threonine-protein kinase 1 (Homo sapiens, UniProt Q13546)	130
CN(C)C(=O)c1nc2n(n1)C(c1ccccc1F)CC2 (racemic)	Receptor-interacting serine/threonine-protein kinase 1 (Homo sapiens, UniProt Q13546)	1400

Shift focus to the following entry.
**Query** Using Receptor-interacting serine/threonine-protein kinase 1 (Homo sapiens, UniProt Q13546) as the test system, report measured Ki of [O-][S+](c1nc2n(n1)[C@H](c1ccccc1)C[C@@H]2F)C1CC1 (some centres unmarked) .
**Result** 33
